A set of molecules tested on UniProt P00533, with measured pIC50:
Reminder that pIC50 is minus the log10 of a molar concentration.

# Structure Smiles String, pIC50
rows = [
    ("CCN(CC)c1ccc(C=NNC(=O)c2ccc(NS(C)(=O)=O)cc2)c(O)c1", 6.78),
]

Attention now shifts to the item below.
# input Given the entry CS(=O)(=O)Nc1ccc(C(=O)NN=Cc2ccccc2O)cc1 , report its measured pIC50.
# output 6.12

====

A set of compounds tested on COX-2 (Ovis aries, UniProt P79208), with measured pIC50:
Reminder that pIC50 is minus the log10 of a molar concentration.

# Compound, Obs Value
data = [
    ("CS(=O)(=O)Nc1ccc(C(=O)NN=Cc2ccccc2O)cc1 [Compound 7]", 4.68),
]

Attention now shifts to the item below.
# input Item CCN(CC)c1ccc(C=NNC(=O)c2ccc(NS(C)(=O)=O)cc2)c(O)c1 [Compound 8] with COX-2 (Ovis aries, UniProt P79208) - pIC50?
# output 4.89
